# protocol: NCI Yeast Anticancer Drug Screen. Data for the mec2-1 strain (AID 157)
# protocol_conditions: S. cerevisiae mec2-1 strain, at 50.0 µM, active compounds read high
About 79,000 compounds went through this panel and 15% of them were active in at least one assay; those are over-represented in the sample as a whole. Where a SMILES comes first, the peptide text is derived from it. [ ]: non-standard residue; d: D form. The star is where a group is joined. ξ: configuration not given here. Cbz = O=C(OCc1ccccc1)*; ξK = NCCCCC(N)C(=O)O

compound | growth inhibition (%)
CCOC(=O)c1cnc2n(c1=O)[C@H]1CCCC[C@@H]1N2 | 5.55
CN(C)c1ncnc2c1ccn2CC(O)CO (configuration not stated) | -11.1
CC(=O)N1CCN(c2ccccc2Cl)CC1 | -17.2
O=c1c2cccnc2cc(-c2ccccc2)n1CCO | -12.3
O=C(O)CC(C(=O)O)C1c2ccccc2-c2ccccc21 (configuration not stated) | -27.2
NC(CO)CSCc1ccccc1 (configuration not stated) | 1.6
Cc1ccc(N2C(=O)/C(=C/c3ccc(N(CCC#N)CCC#N)cc3)CC2(O)c2ccccc2)cc1 (configuration not stated) | -12.6
N#CCN1CCOCC1 | -1.55
CC(=O)N/N=C(\N)c1nc2c(n3nc(C)nc13)CCCC2 | -19
CCCCCCCC(=O)N(CC)CC | -4.05
Cc1cc(C)n2ncnc2n1 | -22.6
CN(C)c1ccc(S(=O)(=O)c2ccc(N(C)C)c([N+](=O)[O-])c2)cc1[N+](=O)[O-] | -9.65
CCCC(NC(C)=O)C(=O)O (configuration not stated) | 2.75
COc1ccc(CCNC(=S)/N=C\C2=C(O)c3ccccc3C2=O)cc1OC | -51.9
C1CCC(C2CCCC[N-]2)[N-]C1.C1CCC(C2CCCC[N-]2)[N-]C1.[Cl][Ru][Cl] (configuration not stated) | 8.55
O=C1Cn2c(c3c(nc2=O)CCCC3)N1 | -7.3
N#CC(C#N)CN(C1=NCCO1)c1cccc2c1CCCC2 | 8.4
Cc1ccc(S(=O)(=O)/C(C#N)=C/NC(=S)Nc2ccc(S(N)(=O)=O)cc2)cc1 | -21.2
C1CCCCCc2c(-c3n[nH]c4c3CCCCCCCCCC4)n[nH]c2CCCC1 | -1.45
CC1=CC(=O)C(c2ccccc2)CC1 (configuration not stated) | -5.65
CN(C)CCCN=c1c2ccccc2n(C)c2[nH]c(=O)n(C)c(=O)c12 | -0.75
CCCCC(CC)CN(CCOC(=O)c1cc2ccccc2oc1=O)CC(CC)CCCC (configuration not stated) | -4.2
CCNc1nc(C)nc2c1cnn2C | 4.85
CCCCCCCCCCCCCCCCCCCCCCCC | 2.3
COc1ccc2[nH]c(=O)oc(=O)c2c1 | 1.25
O=P(O)(O)OC1OC(n2cnc3c(NCc4ccc(F)cc4)ncnc32)C(O)C1O (configuration not stated) | 2.3
NCCN1C(=O)c2ccccc2C1(O)c1ccc(Cl)cc1 (configuration not stated) | -35.4
CC(C)(C)SCCCCO | 19.4
N#CN1CCC2CC(=O)CCC2C1 (configuration not stated) | 2.95
CC1CC(=O)Nc2ncnc(N)c21 (configuration not stated) | -2.45
CCN(CC)CC(C)(C)C=O | -19.8
Cc1c(C(=O)O)c2cc3ccccc3cc2c(=O)n1C | -34.6
Cc1ccc(Cl)c(NC(=O)COc2ccc(Cl)cc2)c1 | 28.3
Cc1cc(=O)oc2c(C(=O)/C=C/N(C)C)c(O)ccc12 | 4.1
Cc1ccc(NCC(=O)N2CC(=O)Nc3ccccc32)cc1 | -21
CCC1SCC(C)(C)NC1=O (configuration not stated) | 13.4
CC(C)=CCCC(C)(O)C1CC=C(C)CC1 (configuration not stated) | -18.8
COc1ccc(/C=N\S(=O)(=O)c2ccc(OC)cc2)cc1 | 13.7
Cc1ccc2c(c1)C(=Nc1ccc(Cl)cc1)C(=O)N2 | 1.7
CCOC(=O)c1ccc(NC(=S)N2CCOCC2)cc1 | 6.8
NC(N)=NC(N)=Nc1ccc2ccccc2c1 | 12.3
COC(=O)[C@@]12CN(C)[C@@H](C(C)(C)C)N1C(=O)OC2c1ccccc1 (some centres not stated) | -25.4
O=c1oc2ccccc2cc1CCBr | 11.4
CN1C(=O)C(Cc2cnc[nH]2)NC1=S (configuration not stated) | 25.1
COc1cccc(/C=C2/Sc3sc(C(C)=O)c(C)[n+]3C2=O)c1O | -1.55
CC(=O)NC1=NC(=O)/C(=C/Cc2cccs2)N1C | 16.1
CC(C)C1NC(=O)c2ccccc2S1 (configuration not stated) | -15.9
COc1ccc(N2C=Nn3c(nc4sc5c(c4c3=O)CCCC5)C2)cc1 | 4.2
O=c1[nH]c(-c2ccccc2)c(-c2ccccc2)nc1Cl | 1.8
NCCCCC(NC(=O)OCc1ccccc1)C(=O)NCC(N)=O (configuration not stated) (Cbz-[ξK]-Gly-NH2) | 8.5
CN(C)C(=O)Sc1ccc([N+](=O)[O-])cc1Cl | 4.6
CCOC(=O)Nn1c(C)nnc1CC#N | -2.4
